Source: patent US20080064726A1

# assay_summary: PK test in rats
# Format: in vivo
# measurement_setup: rat; male SD rats, oral 3 mg/kg, plasma; read-out: AUC0→∞, compound measured = compound tested
metric: AUC(0-inf) (ng·h/mL)
Give the number; ng·h/mL is assumed, so skip it.

Any idea what its AUC(0-inf) is? The molecule is CC(=O)OCC(=O)N1CCC(C)(NCC(=O)N2C[C@@H](F)C[C@H]2C#N)CC1
43

Also, CC1(NCC(=O)N2C[C@@H](F)C[C@H]2C#N)CCN(C(=O)CO)CC1.Cl please.
138

====

# assay_summary: PK test in cynomolgus monkey
# Assay type: in vivo
# measurement_setup: cynomolgus monkey; male cynomolgus monkeys, oral 3 mg/kg, plasma; read-out: AUC0→∞, compound measured = compound tested
metric: AUC(0-inf) (ng·h/mL)
// return numeric value only (unit: ng·h/mL, not printed)

AUC(0-inf) lookup needed for CC1(NCC(=O)N2C[C@@H](F)C[C@H]2C#N)CCN(C(=O)CO)CC1.Cl , thanks.
278

====

# test_system: DPP-IV purified from pig kidney (Sus scrofa)
# Sequence (P22411 whole entry): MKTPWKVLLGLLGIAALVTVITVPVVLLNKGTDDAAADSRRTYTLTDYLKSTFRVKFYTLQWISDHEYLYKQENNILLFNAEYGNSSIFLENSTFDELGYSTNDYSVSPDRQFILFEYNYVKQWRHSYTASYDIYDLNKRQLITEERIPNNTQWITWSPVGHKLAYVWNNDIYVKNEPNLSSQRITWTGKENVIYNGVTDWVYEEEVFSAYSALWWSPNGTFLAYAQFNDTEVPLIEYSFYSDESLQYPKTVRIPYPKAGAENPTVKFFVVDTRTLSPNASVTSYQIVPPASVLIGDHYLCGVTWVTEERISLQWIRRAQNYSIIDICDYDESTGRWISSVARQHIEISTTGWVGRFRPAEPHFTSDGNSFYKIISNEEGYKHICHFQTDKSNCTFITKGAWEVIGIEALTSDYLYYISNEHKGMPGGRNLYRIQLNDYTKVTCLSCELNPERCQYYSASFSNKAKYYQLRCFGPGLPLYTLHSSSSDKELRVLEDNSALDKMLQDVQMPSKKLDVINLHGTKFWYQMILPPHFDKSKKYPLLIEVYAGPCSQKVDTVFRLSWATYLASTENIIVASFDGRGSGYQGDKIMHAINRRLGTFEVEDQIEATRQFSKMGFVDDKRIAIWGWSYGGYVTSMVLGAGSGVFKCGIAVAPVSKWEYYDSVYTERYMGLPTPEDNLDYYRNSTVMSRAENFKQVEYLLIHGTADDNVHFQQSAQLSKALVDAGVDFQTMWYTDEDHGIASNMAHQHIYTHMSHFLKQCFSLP
metric: IC50
Report the figure along with its unit, number first.

Fill blank: measured IC50 of the compound CC1(NCC(=O)N2C[C@@H](F)C[C@H]2C#N)CCN(C(=O)CO)CC1.Cl [Compound X, monohydrochloride] is ____.
15 nM
